Data origin, for the record: ChEMBL document CHEMBL4219134

# System: MCF7
# ASSAY_SUMMARY: Antiproliferative activity against human MCF7 cells after 72 hrs by MTT assay
# Format: functional, cell-based
# REPORTED_CONDITIONS: MCF7, 72 h
QUANTITY_NAME: log10(IC50) (log10 of the value in µM)
Response schema: value (number) is log10 of IC50 in units of µM.

Known results for compounds:
STRUCTURE_AS_SMILES	SYSTEM	QUANTITY_NAME	EXPERIMENTAL_VALUE
O=c1c2c(O)cccc2oc2cc(NS(=O)(=O)c3cccc(OC(F)(F)F)c3)c(O)c(O)c12	MCF7	log10(IC50)	1.31
O=c1c2c(O)cccc2oc2cc(NS(=O)(=O)c3cccc4ccccc34)c(O)c(O)c12	MCF7	log10(IC50)	1.44
O=c1c2c(O)cccc2oc2cc(NS(=O)(=O)c3ccc(C4CCCCC4)cc3)c(O)c(O)c12	MCF7	log10(IC50)	1.42
N#Cc1cccc(S(=O)(=O)Nc2cc3oc4cccc(O)c4c(=O)c3c(O)c2O)c1	MCF7	log10(IC50)	1.26
O=c1c2c(O)cccc2oc2cc(NS(=O)(=O)c3ccc4ccccc4c3)c(O)c(O)c12	MCF7	log10(IC50)	1.64
O=c1c2c(O)cccc2oc2cc(NS(=O)(=O)c3cc(C(F)(F)F)ccc3C(F)(F)F)c(O)c(O)c12	MCF7	log10(IC50)	1.20
CC(C)(C)c1ccc(S(=O)(=O)Nc2cc3oc4cccc(O)c4c(=O)c3c(O)c2O)cc1	MCF7	log10(IC50)	1.13
O=c1c2c(O)cccc2oc2cc(NS(=O)(=O)c3ccc(-c4ccccc4)cc3)c(O)c(O)c12	MCF7	log10(IC50)	1.65

Query string: // log10(IC50) lookup, key: "O=c1c2c(O)cccc2oc2cc(NS(=O)(=O)c3ccc(F)cc3)c(O)c(O)c12"
Result string: 1.32

Query string: Now the same for "O=c1c2c(O)cccc2oc2cc(NS(=O)(=O)c3ccccc3)c(O)c(O)c12"
Result string: 2.05

Query string: "O=c1c2c(O)cccc2oc2cc(NS(=O)(=O)c3ccc(I)cc3)c(O)c(O)c12" ?
Result string: 1.13

Query string: Thanks! And "O=c1c2c(O)cccc2oc2cc(NS(=O)(=O)c3ccc(N4CCCCC4)cc3)c(O)c(O)c12" ?
Result string: 1.68

Query string: Same again, this time with "N#Cc1ccc(S(=O)(=O)Nc2cc3oc4cccc(O)c4c(=O)c3c(O)c2O)cc1"
Result string: 1.60

Query string: Next record, please: "Cc1ccc(S(=O)(=O)Nc2cc3oc4cccc(O)c4c(=O)c3c(O)c2O)cc1"
Result string: 1.65

Query string: Check "O=c1c2c(O)cccc2oc2cc(NS(=O)(=O)c3ccc(Cl)cc3)c(O)c(O)c12" too.
Result string: 1.19

Query string: Same read-out for "O=c1c2c(O)cccc2oc2cc(NS(=O)(=O)c3ccc(C(F)(F)F)cc3)c(O)c(O)c12" ?
Result string: 1.48

Query string: // next record "O=c1c2c(O)cccc2oc2cc(NS(=O)(=O)c3ccc(Br)cc3)c(O)c(O)c12"
Result string: 0.83

###

# pIC50 annotations
# SYSTEM: UniProt P18669
# ASSAY_SUMMARY: Inhibition of recombinant PGAM1 (unknown origin) using 3-PG as substrate preincubated for 2 mins followed by substrate addition
Note: pIC50 values are expressed as the negative base-10 logarithm of concentration in M.

Solved entries:
STRUCTURE_AS_SMILES	pIC50
O=c1c2c(O)cccc2oc2cc(NS(=O)(=O)c3cccc4ccccc34)c(O)c(O)c12	5.77
O=c1c2c(O)cccc2oc2cc(NS(=O)(=O)c3ccc(Br)cc3)c(O)c(O)c12	5.54
O=c1c2c(O)cccc2oc2cc(NS(=O)(=O)c3cccc(OC(F)(F)F)c3)c(O)c(O)c12	5.24
O=c1c2c(O)cccc2oc2cc(NS(=O)(=O)c3cc(C(F)(F)F)ccc3C(F)(F)F)c(O)c(O)c12	5.20
O=c1c2c(O)cccc2oc2cc(NS(=O)(=O)c3ccccc3)c(O)c(O)c12	5.55
CC(C)(C)c1ccc(S(=O)(=O)Nc2cc3oc4cccc(O)c4c(=O)c3c(O)c2O)cc1	5.59
O=c1c2c(O)cccc2oc2cc(NS(=O)(=O)c3ccc(C(F)(F)F)cc3)c(O)c(O)c12	5.46
O=c1c2c(O)cccc2oc2cc(NS(=O)(=O)c3ccc(N4CCCC4)cc3)c(O)c(O)c12	5.57

Query string: Fill in the blank: the reported pIC50 of "O=c1c2c(O)cccc2oc2cc(NS(=O)(=O)c3ccc(C4CCCCC4)cc3)c(O)c(O)c12" is ____.
Result string: 6.30

Query string: Note, next up: "Cc1ccc(S(=O)(=O)Nc2cc3oc4cccc(O)c4c(=O)c3c(O)c2O)cc1"
Result string: 5.14

###

# SYSTEM: Phosphoglycerate mutase 1 (Homo sapiens)
# ASSAY_SUMMARY: Inhibition of recombinant PGAM1 (unknown origin) using 3-PG as substrate preincubated for 2 mins followed by substrate addition
QUANTITY_NAME: IC50 (µM)
Output spec: scalar in µM, unitless text.

The examples below pair each entry with its known result.
STRUCTURE_AS_SMILES	EXPERIMENTAL_VALUE
N#Cc1ccc(S(=O)(=O)Nc2cc3oc4cccc(O)c4c(=O)c3c(O)c2O)cc1	4.2
N#Cc1cccc(S(=O)(=O)Nc2cc3oc4cccc(O)c4c(=O)c3c(O)c2O)c1	2.1
O=c1c2c(O)cccc2oc2cc(NS(=O)(=O)c3ccc(-c4ccccc4)cc3)c(O)c(O)c12	1.2

Switching to the query record.
Query string: Which IC50 value is on record for "O=c1c2c(O)cccc2oc2cc(NS(=O)(=O)c3ccc(F)cc3)c(O)c(O)c12" ?
Result string: 5.5

###

# SYSTEM: Phosphoglycerate mutase 1 (Homo sapiens, UniProt P18669)
# Sequence (P18669 whole entry): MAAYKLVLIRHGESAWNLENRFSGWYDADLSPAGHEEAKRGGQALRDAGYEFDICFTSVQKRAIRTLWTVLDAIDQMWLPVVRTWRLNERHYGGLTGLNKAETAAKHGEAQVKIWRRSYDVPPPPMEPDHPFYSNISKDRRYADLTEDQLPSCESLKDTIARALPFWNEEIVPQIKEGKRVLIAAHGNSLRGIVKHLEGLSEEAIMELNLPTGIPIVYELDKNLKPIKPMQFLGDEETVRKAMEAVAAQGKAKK
# ASSAY_SUMMARY: Inhibition of recombinant human His-tagged PGAM1 expressed in Escherichia coli BL21 competent cells by multiple enzymes coupled assay measuring NADH oxidation at 340 nm
QUANTITY_NAME: IC50 (nM)
Quick note: give the figure in nM, leave out the unit.

Query string: Request the reported IC50 associated with O=C(O[C@@H]1Cc2c(O)cc(O)cc2O[C@@H]1c1cc(O)c(O)c(O)c1)c1cc(O)c(O)c(O)c1 [EPIGALOCATECHIN GALLATE]
Result string: 490

###

# SYSTEM: L-lactate dehydrogenase (Homo sapiens)
# ASSAY_SUMMARY: Inhibition of LDH (unknown origin) at 5 uM using 2-PG relative to control
QUANTITY_NAME: inhibition (%)
Please respond with the number in % and leave the unit unwritten.

Below, 5 compounds whose answers are already recorded.
STRUCTURE_AS_SMILES	inhibition / %
O=c1c2c(O)cccc2oc2cc(NS(=O)(=O)c3cccc4ccccc34)c(O)c(O)c12	7
O=c1c2c(O)cccc2oc2cc(NS(=O)(=O)c3ccc(F)cc3)c(O)c(O)c12	1
O=c1c2c(O)cccc2oc2cc(NS(=O)(=O)c3cc(C(F)(F)F)ccc3C(F)(F)F)c(O)c(O)c12	2
N#Cc1cccc(S(=O)(=O)Nc2cc3oc4cccc(O)c4c(=O)c3c(O)c2O)c1	13
O=c1c2c(O)cccc2oc2cc(NS(=O)(=O)Cc3ccccc3)c(O)c(O)c12	12

Now, please, on to the next compound.
Query string: Return reported inhibition; argument: "O=c1c2c(O)cccc2oc2cc(NS(=O)(=O)c3ccc(N4CCCC4)cc3)c(O)c(O)c12"
Result string: 4

###

# Tested on: PANC-1
# ASSAY_SUMMARY: Antiproliferative activity against PGAM1 overexpessed human PANC1 cells after 72 hrs by MTT assay
# Format: functional, cell-based
# REPORTED_CONDITIONS: PANC-1, 72 h
QUANTITY_NAME: IC50 (µM)
Numeric answer only, unit µM assumed.

Query string: For the compound "O=c1c2c(O)cccc2oc2cc(NS(=O)(=O)c3cc(C(F)(F)F)ccc3C(F)(F)F)c(O)c(O)c12" , what IC50 is on record?
Result string: 25

###

# SYSTEM: Phosphoglycerate mutase 1 (Homo sapiens, UniProt P18669)
# ASSAY_SUMMARY: Inhibition of PGAM1 (unknown origin)
QUANTITY_NAME: IC50 (nM)
Numbers only; they are read as nM.

Query string: Quick one: IC50 for "O=C1c2ccccc2C(=O)c2c1cc(S(=O)(=O)O)c(O)c2O" ?
Result string: 2300

###

# Organism: Homo sapiens
# ASSAY_SUMMARY: Inhibition of pyruvate kinase (unknown origin) at 5 uM using 2-PG relative to control
Item-by-item account of inhibition
Report only the number, with the unit % understood.

STRUCTURE_AS_SMILES	QUANTITY_NAME	EXPERIMENTAL_VALUE
O=c1c2c(O)cccc2oc2cc(NS(=O)(=O)c3ccc4ccccc4c3)c(O)c(O)c12	inhibition	9
N#Cc1cccc(S(=O)(=O)Nc2cc3oc4cccc(O)c4c(=O)c3c(O)c2O)c1	inhibition	13
O=c1c2c(O)cccc2oc2cc(NS(=O)(=O)c3cccc4ccccc34)c(O)c(O)c12	inhibition	7

Query string: If you can, please state the reported inhibition value of "O=c1c2c(O)cccc2oc2cc(NS(=O)(=O)c3ccc(N4CCCC4)cc3)c(O)c(O)c12" .
Result string: 4

Query string: Query "O=c1c2c(O)cccc2oc2cc(NS(=O)(=O)c3ccc(I)cc3)c(O)c(O)c12" next
Result string: 11

Query string: What about "O=c1c2c(O)cccc2oc2cc(NS(=O)(=O)Cc3ccccc3)c(O)c(O)c12" ?
Result string: 12

Query string: Queued: "O=c1c2c(O)cccc2oc2cc(NS(=O)(=O)c3cccc(OC(F)(F)F)c3)c(O)c(O)c12"
Result string: 12

Query string: Field entry: "CC(C)(C)c1ccc(S(=O)(=O)Nc2cc3oc4cccc(O)c4c(=O)c3c(O)c2O)cc1"
Result string: 1

Query string: And for "O=c1c2c(O)cccc2oc2cc(NS(=O)(=O)c3ccccc3)c(O)c(O)c12" ?
Result string: 6

Query string: Again, but for "O=C1c2ccccc2C(=O)c2c1cc(S(=O)(=O)Nc1ccc(C(F)(F)F)cc1)c(O)c2O"
Result string: 38

Query string: "O=c1c2c(O)cccc2oc2cc(NS(=O)(=O)c3ccc(C(F)(F)F)cc3)c(O)c(O)c12" , same question.
Result string: -1

Query string: Next record, please: "Cc1ccc(S(=O)(=O)Nc2cc3oc4cccc(O)c4c(=O)c3c(O)c2O)cc1"
Result string: 2

Query string: # repeat for "O=c1c2c(O)cccc2oc2cc(NS(=O)(=O)c3cc(C(F)(F)F)ccc3C(F)(F)F)c(O)c(O)c12"
Result string: 2

Query string: Now consider "O=c1c2c(O)cccc2oc2cc(NS(=O)(=O)c3ccc(-c4ccccc4)cc3)c(O)c(O)c12" .
Result string: 8

Query string: Param item: "O=c1c2c(O)cccc2oc2cc(NS(=O)(=O)c3ccc(Br)cc3)c(O)c(O)c12"
Result string: 6

Query string: What about this compound? "N#Cc1ccc(S(=O)(=O)Nc2cc3oc4cccc(O)c4c(=O)c3c(O)c2O)cc1"
Result string: 10
